- conditions_used: 308.15 K; 101.33 kPa
attribute_measured: viscosity (mPa·s)
API: value field is a number in mPa·s; no unit string.

Req: Identify the reported viscosity for the following entry. CCNCCO
Resp: 8.223

Req: Please supply the value of reported viscosity for the item CNC=O
Resp: 1.463

Req: Tell me viscosity reported for c1ccc2c(c1)CCCC2
Resp: 1.612

Req: Annotate the compound CC(C)OCCO with its measured viscosity.
Resp: 1.649

Req: Note down viscosity recorded for CCCCOCCO
Resp: 2.193

Req: Retrieve viscosity measured for CCOCCOCCOCC and print it.
Resp: 1.048

Req: Tell us which viscosity value is on record for CCCCNCCO
Resp: 9.869
